# Tested on: RPMI-8226
# measurement protocol: Cytotoxicity against human RPMI8226 cells after 48 hrs by SRB assay
# Assay type: functional
# conditions used: RPMI-8226, 48 h
assay metric: GI50 (µM)
Dear colleague, please return just the value in µM, with no unit written.

Exam item: What measured GI50 goes with COc1ccc(C2CC(c3cccc(Nc4ccnc5cc(Cl)ccc45)c3)=NN2C=O)cc1 (centres undefined) ?
Marked response: 16.7

Exam item: Find the recorded GI50 belonging to COc1cccc2c1C(=O)c1c(O)c3c(c(O)c1C2=O)C[C@@](O)(C(=O)CO)C[C@@H]3O[C@H]1C[C@H](N)[C@H](O)[C@H](C)O1 [DOXORUBICIN] and report it.
Marked response: 0.08

Exam item: For the compound shown here, Cc1ccc(C2CC(c3ccc(Nc4ccnc5cc(Cl)ccc45)cc3)=NN2C=O)cc1 (centres undefined) , give the reported GI50.
Marked response: 2.18

Exam item: Can you look up the measured GI50 of O=CN1N=C(c2ccc(Nc3ccnc4cc(Cl)ccc34)cc2)CC1c1ccccc1 (centres undefined) for me?
Marked response: 2.55

Exam item: Recorded GI50 of COc1cc(C2CC(c3ccc(Nc4ccnc5cc(Cl)ccc45)cc3)=NN2C=O)cc(OC)c1OC (centres undefined) , please.
Marked response: 2.56

Exam item: Which GI50 reading was recorded for the compound O=CN1N=C(c2cccc(Nc3ccnc4cc(Cl)ccc34)c2)CC1c1ccc(Cl)cc1 (centres undefined) ?
Marked response: 2.45

Exam item: Form field: reported GI50 of COc1ccc(C2CC(c3ccc(Nc4ccnc5cc(Cl)ccc45)cc3)=NN2C=O)cc1 (centres undefined)
Marked response: 2.71

Exam item: // query GI50 value for entry O=CN1N=C(c2cccc(Nc3ccnc4cc(Cl)ccc34)c2)CC1c1ccccc1 (centres undefined)
Marked response: 0.49

Exam item: Item COc1cc(C2CC(c3cccc(Nc4ccnc5cc(Cl)ccc45)c3)=NN2C=O)cc(OC)c1OC (centres undefined) has what recorded GI50?
Marked response: 8.83

* * *

# Tested on: PC-3
# measurement protocol: Cytotoxicity against human PC3 cells after 48 hrs by SRB assay
# Type: functional
# conditions used: PC-3, 48 h
assay metric: GI50

Exam item: What GI50 appears in the records for this compound with PC-3? O=CN1N=C(c2ccc(Nc3ccnc4cc(Cl)ccc34)cc2)CC1c1ccccc1 (centres undefined)
Marked response: 4.76 µM

Exam item: PC-3 / GI50 / COc1cccc2c1C(=O)c1c(O)c3c(c(O)c1C2=O)C[C@@](O)(C(=O)CO)C[C@@H]3O[C@H]1C[C@H](N)[C@H](O)[C@H](C)O1 : value?
Marked response: 0.32 µM

Exam item: # value lookup — system PC-3, readout GI50, item COc1ccc(C2CC(c3ccc(Nc4ccnc5cc(Cl)ccc45)cc3)=NN2C=O)cc1 (centres undefined)
Marked response: 9.43 µM

Exam item: Which GI50 is reported with PC-3 for this entry: O=CN1N=C(c2ccc(Nc3ccnc4cc(Cl)ccc34)cc2)CC1c1ccc(Cl)cc1 (centres undefined) ?
Marked response: 0.48 µM

Exam item: Request body: readout GI50, system PC-3, query CC(=O)N1N=C(c2ccc(Nc3ccnc4cc(Cl)ccc34)cc2)CC1c1ccc(Cl)cc1 (centres undefined) . Return the value.
Marked response: 3.02 µM

Exam item: Find GI50 (PC-3) for the entry COc1cc(C2CC(c3ccc(Nc4ccnc5cc(Cl)ccc45)cc3)=NN2C=O)cc(OC)c1OC (centres undefined)
Marked response: 11.7 µM

Exam item: Request - read-out GI50 | tested on PC-3 | compound Cc1ccc(C2CC(c3ccc(Nc4ccnc5cc(Cl)ccc45)cc3)=NN2C=O)cc1 (centres undefined)
Marked response: 4.61 µM

Exam item: // lookup GI50 | system=PC-3 | key= COc1ccc(C2CC(c3cccc(Nc4ccnc5cc(Cl)ccc45)c3)=NN2C=O)cc1 (centres undefined)
Marked response: 0.85 µM

Exam item: What GI50 appears in the records for this compound with PC-3? COc1cc(C2CC(c3cccc(Nc4ccnc5cc(Cl)ccc45)c3)=NN2C=O)cc(OC)c1OC (centres undefined)
Marked response: 1.46 µM
